# System: human APOE RNA
# test_protocol: Potency (dose response, ED50) in APOE C57BL/6NTac-Apoeem7250 knock-in mice, 4 weeks (Example 14)
# Type: in vivo
# measurement_parameters: cortex, ICV dose 10 μg
Strand notation (5' to 3'): a small letter for the sugar, then the base; units joined by * are phosphorothioate-linked, units joined directly phosphodiester-linked; [ ] holds rarer units or linkages, { } end groups; capitals alone tell only the bases. [ms] = mesyl phosphoramidate linkage; e = 2'-O-(2-methoxyethyl) (MOE); k = constrained ethyl (cEt); [5mC] = 5-methylcytosine; d = 2'-deoxy (DNA)
recorded_endpoint: APOE RNA (% control) Cortex
Please don't drop the unit; write it after the number.

Use these answered entries as a reference point.
Requested read-out: APOE RNA (% control) Cortex. Entry: 1693105: 6-10-4 MOE gapmer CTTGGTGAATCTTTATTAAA, linkages sosssszzzssssszssss (e[5mC]*eTeT*eG*eG*eT*dG[ms]dA[ms]dA[ms]dT*d[5mC]*dT*dT*dT*dA[ms]dT*eT*eA*eA*eA) [compound 1693105]
100 % control

Requested read-out: APOE RNA (% control) Cortex. Entry: 1757575 (eA*e[5mC]eTeT*kG*kG*dT*dG[ms]dA[ms]dA[ms]dT*d[5mC]*dT*dT*dT*dA[ms]kT*eT*eA*eA; antisense) [Compound 1757575]
100 % control

Requested read-out: APOE RNA (% control) Cortex. Entry: Aes^mCeoTeoTesGesGksTdsGdzAdzAdzTds^mCdsTdsTdsTdsAdzTksTksAesAe (eA*e[5mC]eTeT*eG*kG*dT*dG[ms]dA[ms]dA[ms]dT*d[5mC]*dT*dT*dT*dA[ms]kT*kT*eA*eA) [Compound No. 1757576]
108 % control

Now for another entry.
Requested read-out: APOE RNA (% control) Cortex. Entry: 1778154: modified oligonucleotide complementary to human APOE RNA (e[5mC]*eT*eTeGeGeT*dG[ms]dA[ms]dA*dT*d[5mC]*dT*dT*dT*dA*dT*kTkAeA*eA; antisense) [compound 1778154]
89 % control

###

Reported APOE RNA (% UTC) values are given for each entry in this list.
# Tested on: human APOE RNA
# test_protocol: Dose-dependent inhibition of human APOE RNA in HepG2 cells, electroporation, 50,000 cells per well, RT-PCR normalized to GAPDH (Example 4, Tables 8-10)
# Type: cell-based
# measurement_parameters: 20,000 nM; HepG2, electroporation, 16-hour treatment
Strand notation (5' to 3'): a small letter for the sugar, then the base; units joined by * are phosphorothioate-linked, units joined directly phosphodiester-linked; [ ] holds rarer units or linkages, { } end groups; capitals alone tell only the bases. [ms] = mesyl phosphoramidate linkage; e = 2'-O-(2-methoxyethyl) (MOE); k = constrained ethyl (cEt); [5mC] = 5-methylcytosine; d = 2'-deoxy (DNA)
// note: answer is a bare numeric in % UTC

Item: 1757585 (eT*eTeGkGkT*dG*dA*dA*dT*d[5mC]*dT*dT*dT*dA*dT*kTeAeA*eA*e[5mC]; antisense) [Compound 1757585] Test system: human APOE RNA Read-out: APOE RNA (% UTC) Value: ?
1

---
Item: 1757565 (eA*e[5mC]eTeTkG*dG*dT*dG*dA*dA*dT*d[5mC]*dT*dT*dT*eAeTeT*eA*eA; antisense) [Compound 1757565] Test system: human APOE RNA Read-out: APOE RNA (% UTC) Value: ?
22

Item: 1757567 (eA*e[5mC]eTeTeG*dG*dT*dG*dA*dA*dT*d[5mC]*dT*dT*dT*kAeTeT*eA*eA; antisense) [Compound 1757567] Test system: human APOE RNA Read-out: APOE RNA (% UTC) Value: ?
23

Item: Aes^mCeoTeoTesGesGksTdsGdzAdzAdzTds^mCdsTdsTdsTdsAdzTksTksAesAe (eA*e[5mC]eTeT*eG*kG*dT*dG[ms]dA[ms]dA[ms]dT*d[5mC]*dT*dT*dT*dA[ms]kT*kT*eA*eA) [Compound No. 1757576] Test system: human APOE RNA Read-out: APOE RNA (% UTC) Value: ?
7

Item: 1757568 (eA*e[5mC]eTeTeG*dG*dT*dG*dA*dA*dT*d[5mC]*dT*dT*dT*kAkTeT*eA*eA; antisense) [Compound 1757568] Test system: human APOE RNA Read-out: APOE RNA (% UTC) Value: ?
19

Item: 1757575 (eA*e[5mC]eTeT*kG*kG*dT*dG[ms]dA[ms]dA[ms]dT*d[5mC]*dT*dT*dT*dA[ms]kT*eT*eA*eA; antisense) [Compound 1757575] Test system: human APOE RNA Read-out: APOE RNA (% UTC) Value: ?
15

Source: patent US20250353873A1
